experimental-target: FGFR3 (UniProt P22607)
Sequence (P22607 whole entry, looked up): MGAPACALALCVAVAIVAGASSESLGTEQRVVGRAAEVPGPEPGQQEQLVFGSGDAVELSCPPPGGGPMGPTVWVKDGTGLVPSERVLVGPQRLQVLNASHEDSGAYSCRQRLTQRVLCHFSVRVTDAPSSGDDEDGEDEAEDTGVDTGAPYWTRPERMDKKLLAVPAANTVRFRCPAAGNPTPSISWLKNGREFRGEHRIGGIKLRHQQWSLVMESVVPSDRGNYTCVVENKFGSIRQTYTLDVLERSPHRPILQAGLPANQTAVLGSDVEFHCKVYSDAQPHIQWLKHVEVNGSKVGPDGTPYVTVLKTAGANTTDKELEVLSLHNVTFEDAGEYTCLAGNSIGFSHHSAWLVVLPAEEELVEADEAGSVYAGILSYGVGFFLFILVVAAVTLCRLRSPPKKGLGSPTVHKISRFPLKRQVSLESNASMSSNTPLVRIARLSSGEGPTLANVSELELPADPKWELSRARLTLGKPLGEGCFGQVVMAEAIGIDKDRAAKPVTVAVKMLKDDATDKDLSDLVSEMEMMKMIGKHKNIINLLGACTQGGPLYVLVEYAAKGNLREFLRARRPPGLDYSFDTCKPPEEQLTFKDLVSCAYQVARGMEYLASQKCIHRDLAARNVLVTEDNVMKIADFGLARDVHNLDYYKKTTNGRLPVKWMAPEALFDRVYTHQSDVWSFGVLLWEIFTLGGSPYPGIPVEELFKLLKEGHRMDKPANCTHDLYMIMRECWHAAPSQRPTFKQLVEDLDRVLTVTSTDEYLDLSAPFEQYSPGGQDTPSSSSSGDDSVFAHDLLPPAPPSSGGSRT
run-description: phosphorylation enrichment, bacterial display (enrichment ratio); higher = better substrate or ligand; peptides without Tyr show the background;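 further: 11-residue human phosphosite peptides and single-mutation variants displayed on the E. coli surface, counted by deep sequencing, each peptide's frequency after selection divided by its frequency in the unselected input library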;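 further: frequency after pTyr selection over input frequency; kinase dosed for 20-30% of maximal phosphorylation in three min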
phosphorylation enrichment overview

sequence-input | phosphorylation enrichment
FGIAQYCCRMG [LRRK2_Y2023_YF] | 0.584
EKQARYEIVEE [CDH5_Y223_V227E] | 0.798
SLAARYFNWVC [FLT4_Y1230_S1235C_YF] | 0.822

----------
experimental-target: EPHB1 (UniProt P54762)
Sequence (P54762 whole entry, looked up): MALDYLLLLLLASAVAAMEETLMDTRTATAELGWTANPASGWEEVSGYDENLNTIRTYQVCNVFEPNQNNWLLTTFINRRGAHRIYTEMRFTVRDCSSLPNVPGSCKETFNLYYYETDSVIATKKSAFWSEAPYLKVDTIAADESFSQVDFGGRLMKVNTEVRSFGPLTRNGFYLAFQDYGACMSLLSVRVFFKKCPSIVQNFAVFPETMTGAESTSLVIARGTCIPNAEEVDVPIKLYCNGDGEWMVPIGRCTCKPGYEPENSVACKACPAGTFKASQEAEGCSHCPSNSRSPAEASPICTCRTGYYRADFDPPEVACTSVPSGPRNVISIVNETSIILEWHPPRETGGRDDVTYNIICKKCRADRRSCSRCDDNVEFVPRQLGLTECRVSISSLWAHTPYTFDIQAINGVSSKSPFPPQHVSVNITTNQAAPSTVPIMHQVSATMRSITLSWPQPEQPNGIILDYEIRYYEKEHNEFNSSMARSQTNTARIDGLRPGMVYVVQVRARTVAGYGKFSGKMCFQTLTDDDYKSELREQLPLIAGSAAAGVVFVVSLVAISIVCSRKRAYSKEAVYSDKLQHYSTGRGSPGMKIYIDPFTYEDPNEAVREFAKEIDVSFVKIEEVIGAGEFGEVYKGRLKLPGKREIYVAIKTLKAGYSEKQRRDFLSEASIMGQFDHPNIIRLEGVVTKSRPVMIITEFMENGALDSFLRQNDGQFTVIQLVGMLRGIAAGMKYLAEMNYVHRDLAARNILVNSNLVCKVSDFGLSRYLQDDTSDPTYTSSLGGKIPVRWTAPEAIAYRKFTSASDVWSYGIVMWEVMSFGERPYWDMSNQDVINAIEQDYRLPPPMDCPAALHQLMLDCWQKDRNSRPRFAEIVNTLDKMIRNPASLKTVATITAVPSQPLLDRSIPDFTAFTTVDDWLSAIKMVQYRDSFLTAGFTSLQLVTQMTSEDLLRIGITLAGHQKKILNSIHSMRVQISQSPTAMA
run-description: phosphorylation enrichment, bacterial display (enrichment ratio); higher = better substrate or ligand; peptides without Tyr show the background
phosphorylation enrichment overview
value-kind: phosphorylation enrichment

sequence-input | experimental-target | readout-value
PQAVRYIYTID [DCX_Y103_G100A] | EPHB1 (UniProt P54762) | 0.74
EGVPLYESATT [DCC_Y809] | EPHB1 (UniProt P54762) | 4.19
ALVLQYLRVPL [F9_Y371] | EPHB1 (UniProt P54762) | 0.61
QDKDLYPCPGT [RLF_Y671_R668K] | EPHB1 (UniProt P54762) | 0.701
QGIIIYKAAYF [SLC25A4_Y187_R188K] | EPHB1 (UniProt P54762) | 0.94
GMTLSYLFWEP [NDUFS8_Y74_R77W] | EPHB1 (UniProt P54762) | 0.875
SSAKTYSRMRL [NBEAL2_Y1835_E1833K] | EPHB1 (UniProt P54762) | 0.354
SSQTIYQRVEG [TFR2_Y23_V22I] | EPHB1 (UniProt P54762) | 1.5
SSVKLYRVFCD [FGB_Y266_P265L_YF] | EPHB1 (UniProt P54762) | 0.579
GGYTCYCDGKK [PROS1_Y266] | EPHB1 (UniProt P54762) | 0.537

Recorded values, source the supplement of paper PMC10065799.
